Tested on: SU-DHL-1
Assay: Induction of STAT4 expression in human SU-DHL-1 cells at 0.25 to 100 uM incubated for 4 hrs by Western blot analysis
Format: functional, cell-based
Conditions: dose 0.25-100 µM
Calls of active or inactive are those of the source. No cut-off for these calls is given here.
Use one of these outcomes when replying: active, inactive

Sample answers from the record:
COMPOUND: CC(=O)N1CC[C@H]2CC[C@@H](C(=O)N[C@@H](CCC(N)=O)C(=O)NC(c3ccccc3)c3ccccc3)N2C(=O)[C@@H](NC(=O)c2cc3cc(C(F)(F)P(=O)(O)O)ccc3[nH]2)C1
GROUP: inactive
//
COMPOUND: NC(=O)CC[C@H](NC(=O)[C@@H]1CC[C@@H]2CCN(C(=O)CCCCCC#Cc3cccc4c3CN(C3CCC(=O)NC3=O)C4=O)C[C@H](NC(=O)c3cc4cc(C(=O)P(=O)(O)O)ccc4[nH]3)C(=O)N21)C(=O)NC(c1ccccc1)c1ccccc1 (some centres undefined)
GROUP: active
//
COMPOUND: CC(=O)N1CC[C@H]2CC[C@@H](C(=O)N[C@@H](CCC(N)=O)C(=O)NC(c3ccccc3)c3ccccc3)N2C(=O)[C@@H](NC(=O)c2cc3cc(C(=O)P(=O)(O)O)ccc3[nH]2)C1
GROUP: inactive

What was the test verdict on NC(=O)CC[C@H](NC(=O)[C@@H]1CC[C@@H]2CCN(C(=O)CCCCCC#Cc3cccc4c3CN(C3CCC(=O)NC3=O)C4=O)C[C@H](NC(=O)c3cc4cc(C(F)(F)P(=O)(O)O)ccc4[nH]3)C(=O)N21)C(=O)NC(c1ccccc1)c1ccccc1 (some centres undefined) ?
active

Data credit: ChEMBL document CHEMBL4706770
